Data origin: patent US20260028391A1

# systemUnderTest: fusion glycoprotein of the MPV D280 used in the neutralization assay of Example 3 (metapneumovirus (strain not stated))
# protocol: cell-based or functional assay
assayMetric: MPV D280 Neutralization - IC50 (ng/mL)

[[record]]
binder = "MPK145 (antibody, V domains shown) VH: EVQLVESGGGLVEPGGSLRLSCAASGFTISGYGMSWVRQAPGKGLEWVSSISASSSYIYYGDAMKGRITISRDNGWNSMYLQMNSLRTEDTAVYYCATAPIEPPYFDLWGRGTLVTVSS VL: QSVVTQPPSVSGAPGQRVTISCTGSSSNIGAGYDVHWYQQFPGKAPKVLIYGNNNRPSGVPDRFAASNSGASASLAITGLQAEDEAAYFCQSYDRRLSGPVFGGGTKLTVL"
assaymetric = "MPV D280 Neutralization - IC50"
units = "ng/mL"
measuredresult = 7.8

[[record]]
binder = "MPK174-v2 (antibody, V domains shown) VH: EVQLVESGGGLVKPGGSLRLSCAASRFKFGDYYMSWIRQAPGKGLEWVSNISPSSSYTNYADSVKGRFTISRDNAKNLLYLQMNSLRAEDTAVYYCARESCSGGSCSLHGMDVWGQGTTVTVAS VL: QSVLTQPPSVSGAPGQRVTISCTGSSSNIGAGYDVHWYQQLPGTAPKLLIYDNSNRPSGVPDRFSGSKSGTSASLAITGLRAEDDADYYCQSYDRSLGGSIFGGGTKLTVL"
assaymetric = "MPV D280 Neutralization - IC50"
units = "ng/mL"
measuredresult = 17.7

[[record]]
binder = "MPK142-v2 (antibody, V domains shown) VH: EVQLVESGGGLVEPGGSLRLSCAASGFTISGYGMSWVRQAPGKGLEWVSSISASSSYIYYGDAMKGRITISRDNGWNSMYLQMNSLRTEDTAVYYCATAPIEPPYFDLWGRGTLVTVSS VL: DIQLTQTPTSLSASVGDRVTFTCRASQNIGFYLNWYQQKPGKAPRLLIYGASNLQSGVPSRFSGSGAGTDFSLTISSLQPEDFATYYCQQSFNTPRTFGQGTKVEIN"
assaymetric = "MPV D280 Neutralization - IC50"
units = "ng/mL"
measuredresult = 135

